Molecular target: T1, human ACTH 1-39 (human)
T1 construct: unlabelled synthetic peptide (Bachem or American Peptide) as used in SPR and cell assays; also called huACTH 1-39; huACTH(1-39)
T1 peptide: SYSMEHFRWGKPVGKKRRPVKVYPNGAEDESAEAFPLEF
Assay: SPR ProteOn, antibody immobilised
measurement kind: kon (M⁻¹ s⁻¹)
Give the quantity in M⁻¹ s⁻¹, number only.

// solved cases for kon follow
>>> reported_value("Ab11 (antibody, human IgG1, kappa, N297A, V domains shown, rabbit/human chimeric antibody, made in HEK-293) VH: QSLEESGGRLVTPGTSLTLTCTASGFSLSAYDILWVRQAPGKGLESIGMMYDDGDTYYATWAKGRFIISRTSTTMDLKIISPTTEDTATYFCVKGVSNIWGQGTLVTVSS VL: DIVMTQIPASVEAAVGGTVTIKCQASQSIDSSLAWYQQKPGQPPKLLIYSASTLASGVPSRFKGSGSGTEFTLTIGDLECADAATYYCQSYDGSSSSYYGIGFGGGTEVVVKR")
"1e+06"
>>> reported_value("Ab10 (antibody, human IgG1, kappa, N297A, V domains shown, rabbit/human chimeric antibody, made in HEK-293) VH: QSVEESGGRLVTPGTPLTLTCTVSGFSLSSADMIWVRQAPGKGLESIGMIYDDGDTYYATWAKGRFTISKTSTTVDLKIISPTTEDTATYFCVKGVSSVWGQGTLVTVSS VL: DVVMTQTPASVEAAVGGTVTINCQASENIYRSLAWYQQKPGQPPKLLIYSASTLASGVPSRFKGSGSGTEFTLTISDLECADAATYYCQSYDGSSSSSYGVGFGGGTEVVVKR")
"1e+06"

Req: Form field: reported kon of Ab7 (antibody, human IgG1, kappa, N297A, V domains shown, rabbit/human chimeric antibody, made in HEK-293) VH: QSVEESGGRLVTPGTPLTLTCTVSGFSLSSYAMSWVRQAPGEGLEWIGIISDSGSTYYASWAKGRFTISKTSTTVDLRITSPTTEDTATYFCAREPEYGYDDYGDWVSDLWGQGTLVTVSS VL: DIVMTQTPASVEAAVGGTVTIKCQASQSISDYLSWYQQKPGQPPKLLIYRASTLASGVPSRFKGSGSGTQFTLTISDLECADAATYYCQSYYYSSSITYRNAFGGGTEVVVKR
Resp: 1e+06
